Source listed as PubChem BioAssay AID1663.

Experiment: inhibitors of platelet dense granule secretion, primary screen, cell-based, MLPCN, human platelets (AID 1663)
Conditions: human platelet-rich plasma, SFLLRN dense granule ATP release, luminescence; active compounds read high;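 compounds screened at 7.5 µM in platelet-rich plasma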
Hit rate of the full screen: of about 300,000 compounds, about 660 (0.22%) were called active. The full list was thinned out, with actives kept by preference.
Below is a list of entries, each paired with its recorded inhibition value.
Express your answer in %, writing the number without its unit.

Recorded inhibition, per entry:
CCN(CC(=O)Nc1ccc(C)c(S(=O)(=O)N(C)C)c1)Cc1ccccc1 = 2.21
COc1ccc(/C(C)=N/NC(=O)c2ccc3nc[nH]c3c2)cc1 = 8.86
COc1ccc(-c2nc(N)sc2C2(O)C(=O)Nc3c(Br)cc(F)cc32)cc1OC (stereo unspecified) = 7.83

What value of inhibition has been recorded for this entry: COc1ccc(NC(=O)CC(NC(C)c2ccccc2)C(=O)O)cc1 (stereo unspecified)
-14.9

I am curious: what inhibition value has been reported for Cc1ncn2cc(-c3ccc(Cl)cc3Cl)[nH]c(=O)c12 ?
-3

Entry C/C(=N\NC(=O)c1cc2c(s1)CCC(C)C2)c1cccnc1 (stereo unspecified) : reported inhibition = ?
9.94
